species on record: Homo sapiens; experiment: Displacement of F-NEO from human mitochondrial rRNA-A site C1410U mutant after 10 to 20 mins by fluorescence assay relative to NEO; set-up: concentration or dose not given beside the values
Here the recorded inhibition is given for each entry.
Measured Parameter: inhibition (%)

[[record]]
chemical_string = "NC[C@@H]1O[C@H](O[C@H]2[C@@H](O)[C@H](O[C@@H]3[C@@H](O)[C@H](N)C[C@H](N)[C@H]3O[C@H]3O[C@H](CN)[C@@H](O)[C@H](O)[C@H]3N)O[C@@H]2CSCCNC(=O)Cc2ccc3ccc4cccc5ccc2c3c45)[C@H](N)[C@@H](O)[C@@H]1O"
unit_annotation = "%"
recorded_measurement = 103

[[record]]
chemical_string = "NC[C@@H]1O[C@H](O[C@H]2[C@@H](O)[C@H](O[C@@H]3[C@@H](O)[C@H](N)C[C@H](N)[C@H]3O[C@H]3O[C@H](CN)[C@@H](O)[C@H](O)[C@H]3N)O[C@@H]2CNC(=O)CCCc2ccc3ccc4cccc5ccc2c3c45)[C@H](N)[C@@H](O)[C@@H]1O"
unit_annotation = "%"
recorded_measurement = 103

[[record]]
chemical_string = "NC[C@@H]1O[C@H](O[C@H]2[C@@H](O)[C@H](O[C@@H]3[C@@H](O)[C@H](N)C[C@H](N)[C@H]3O[C@H]3O[C@H](CN)[C@@H](O)[C@H](O)[C@H]3N)O[C@@H]2CSCCNC(=O)CCCc2ccc3ccc4cccc5ccc2c3c45)[C@H](N)[C@@H](O)[C@@H]1O"
unit_annotation = "%"
recorded_measurement = 92

[[record]]
chemical_string = "NC[C@@H]1O[C@H](O[C@H]2[C@@H](O)[C@H](O[C@@H]3[C@@H](O)[C@H](N)C[C@H](N)[C@H]3O[C@H]3O[C@H](CN)[C@@H](O)[C@H](O)[C@H]3N)O[C@@H]2CSCCNC(=S)NCCCCCCNC(=O)CCCc2ccc3ccc4cccc5ccc2c3c45)[C@H](N)[C@@H](O)[C@@H]1O"
unit_annotation = "%"
recorded_measurement = 91

